- EXPERIMENT DESCRIPTION: In vitro microsomal stability, mouse
- Assay type: in vitro ADME
- PROTOCOL CONDITIONS: mouse, liver microsomes, Mouse, NADPH-absent; read-out: CLint (microsomal intrinsic clearance)
RECORDED ENDPOINT: microsomal CLint

O=c1cc(CNc2cc(Cl)cc(Cl)c2)[nH][nH]1 [Compound 2, reference compound] :: 23 µL/min/mg

----------
- EXPERIMENT DESCRIPTION: Metabolic half-life in rats
- Assay type: in vitro ADME
- PROTOCOL CONDITIONS: rat
RECORDED ENDPOINT: half-life

O=c1cc(COc2cc(Cl)cc(Cl)c2)[nH][nH]1 :: ~2 h

----------
- EXPERIMENT DESCRIPTION: in vivo
- PROTOCOL CONDITIONS: mouse, plasma concentration
RECORDED ENDPOINT: concentration at 12 h

O=c1cc(COc2cc(Cl)cc(Cl)c2)[nH][nH]1 [CMB-087229] :: 248 µM

----------
- EXPERIMENT DESCRIPTION: Brain uptake procedure, LCMS of brain and plasma
- Type: in vivo, mice (Tg6799 colony with B6/SJL background)
- PROTOCOL CONDITIONS: Tg6799 colony with B6/SJL background, mouse, brain, intraperitoneal, 1 mg/kg, 1 mg/kg i.p., 10 minutes, single mice; read-out: Brain concentration
RECORDED ENDPOINT: concentration at 10 min (ng/g)

O=c1cc(COc2cc(Cl)cc(Cl)c2)[nH][nH]1 [CMB-087229] :: 257

----------
- Test system: PC12 cells that express mutant G93A SOD1
- EXPERIMENT DESCRIPTION: Mutant SOD1-induced cytotoxicity protection assay
- PROTOCOL CONDITIONS: Rattus norvegicus, PC-12, read-out: Best EC50, PC12 G93A SOD1 cells, MG132, calcein-AM viability
pEC50: −log10 of the molar value.
RECORDED ENDPOINT: pEC50

O=c1cc(CSCCOc2ccccc2)[nH][nH]1 :: 5.21
O=c1cc(COc2cc(C(F)(F)F)cc(C(F)(F)F)c2)[nH][nH]1 :: 6.89
O=c1cc(CS(=O)(=O)c2ccc(Cl)cc2)[nH][nH]1 :: 5.16
O=c1cc(CSc2ccc(Cl)cc2)[nH][nH]1 :: 5.38
O=c1cc(CSCc2ccc(Cl)cc2)[nH][nH]1 :: 5.38
O=c1cc(COc2cccc(-c3ccccc3)c2)[nH][nH]1 :: 5.07

----------
- EXPERIMENT DESCRIPTION: in vivo
- PROTOCOL CONDITIONS: mouse, plasma concentration
RECORDED ENDPOINT: concentration at 3 h (µM)

O=c1cc(COc2cc(Cl)cc(Cl)c2)[nH][nH]1 :: 342

----------
- EXPERIMENT DESCRIPTION: Brain uptake procedure, LCMS of brain and plasma
- Type: in vivo, mice (Tg6799 colony with B6/SJL background)
- PROTOCOL CONDITIONS: Tg6799 colony with B6/SJL background, mouse, brain extract, intraperitoneal, 1 mg/kg, 1 mg/kg i.p., 10 minutes, single mice; read-out: Brain Extract concentration
RECORDED ENDPOINT: concentration at 10 min (ng/mL)

O=c1cc(COc2cc(Cl)cc(Cl)c2)[nH][nH]1 [CMB-087229] :: 121

// data source = patent US9145424B2
